# Measurement notes: Crossover pharmacokinetic study in rats after IV or oral MPI8 sulfonate
# Type: in vivo, Sprague-Dawley rats
# Measurement conditions: male, Sprague-Dawley, in vivo; rat; oral 50 mg/kg MPI8 sulfonate; NCA; no unit in table (h)
Test readout: Tmax (h)
Give a bare numeral; the unit h is implied.

Given CC(OC(C)(C)C)C(NC(=O)OCc1ccccc1)C(=O)NC(CC1CCCCC1)C(=O)NC(C=O)CC1CCNC1=O (stereo not shown) [MPI8] , state its recorded Tmax.
2.17

###

# Measurement notes: Crossover pharmacokinetic study in rats after IV or oral MPI8 sulfonate
# Type: in vivo, Sprague-Dawley rats
# Measurement conditions: male, Sprague-Dawley, in vivo; rat; oral 50 mg/kg MPI8 sulfonate; NCA
Test readout: AUC(0-inf) (ng·h/mL)
Give a bare numeral; the unit ng·h/mL is implied.

Given CC(OC(C)(C)C)C(NC(=O)OCc1ccccc1)C(=O)NC(CC1CCCCC1)C(=O)NC(C=O)CC1CCNC1=O (stereo not shown) , state its recorded AUC(0-inf).
1180

Hey, just so you know, these numbers are from paper PMC9228185.
